Where these numbers come from: the supplement of paper PMC10065799

target-under-test: SHP2-C SH2;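 note: peptide library displayed on the E. coli surface as eCPX fusions, selected cells deep-sequenced, score is each peptide's frequency after selection divided by its frequency in the input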
protocol-description: SH2 binding enrichment of the phosphorylated peptide, bacterial display (enrichment ratio); higher = better substrate or ligand; peptides without Tyr show the background
recorded-endpoint: SH2 binding enrichment
Could you keep your reply to the number by itself?

Give reported SH2 binding enrichment value for AVVEPYNSILT [TUBA1A_Y185]
0.899

Please supply the value of reported SH2 binding enrichment for the item GGFTRYCDGKK [PROS1_Y266_C265R_YF]
0.881

Indicate its recorded SH2 binding enrichment; the sequence in question is QLRPGYFPIPV [BAG3_Y93_I94F]
0.906

----------
target-under-test: Fes (UniProt P07332)
Sequence (P07332 whole entry, looked up): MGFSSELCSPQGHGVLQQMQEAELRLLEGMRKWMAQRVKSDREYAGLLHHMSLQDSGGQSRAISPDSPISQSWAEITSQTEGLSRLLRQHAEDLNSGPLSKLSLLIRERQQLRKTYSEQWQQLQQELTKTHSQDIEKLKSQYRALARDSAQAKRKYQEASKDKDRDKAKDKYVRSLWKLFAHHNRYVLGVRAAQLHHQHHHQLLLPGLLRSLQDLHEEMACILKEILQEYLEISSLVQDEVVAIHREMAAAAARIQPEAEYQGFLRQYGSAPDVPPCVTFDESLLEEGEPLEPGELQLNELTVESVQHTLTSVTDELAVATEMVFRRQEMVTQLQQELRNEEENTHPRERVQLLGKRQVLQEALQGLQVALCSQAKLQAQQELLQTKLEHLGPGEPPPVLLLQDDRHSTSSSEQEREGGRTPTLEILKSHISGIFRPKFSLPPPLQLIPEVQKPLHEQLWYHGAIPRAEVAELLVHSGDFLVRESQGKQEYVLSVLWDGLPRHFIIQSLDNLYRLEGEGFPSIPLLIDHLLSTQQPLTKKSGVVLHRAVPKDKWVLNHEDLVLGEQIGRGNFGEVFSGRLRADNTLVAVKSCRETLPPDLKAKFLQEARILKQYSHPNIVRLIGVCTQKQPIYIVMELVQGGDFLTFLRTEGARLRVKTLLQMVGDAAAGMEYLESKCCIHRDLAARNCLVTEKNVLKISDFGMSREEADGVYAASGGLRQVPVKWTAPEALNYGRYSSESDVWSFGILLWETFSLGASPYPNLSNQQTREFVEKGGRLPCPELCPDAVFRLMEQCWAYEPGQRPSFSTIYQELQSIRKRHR
protocol-description: phosphorylation enrichment, bacterial display (enrichment ratio); higher = better substrate or ligand; peptides without Tyr show the background
Given measured phosphorylation enrichment, output yes (1) if it is greater than or equal to 1 and no (0) if not.

Hi team, for KPIETYFSKNY [PLP1_Y50_L46P] , is the recorded phosphorylation enrichment at or above 1?
no (0)

Assess whether reported phosphorylation enrichment for RQQEDYLLFKQ [RARRES1_Y159_YF] sits at 1 or higher.
yes (1)

Would you say RKETFYILSCR [GUCY2C_Y681_T682I] shows phosphorylation enrichment at minimum 1?
yes (1)

Quick check, phosphorylation enrichment >= 1? FTRNYYVRAVL [CYBA_Y88]
yes (1)

Is reported phosphorylation enrichment greater than or equal to 1 here: MKDLTYSSLCF [ALOX5_Y446_A447S]
yes (1)

Would you say LLREWYVQDPY [SIX3_Y225_L226V] shows phosphorylation enrichment at minimum 1?
yes (1)

Does RRNEEYCLLDS [ITK_Y198] have a reported phosphorylation enrichment of at least 1?
yes (1)

Hi, just wondering whether VNFQPYRKHKF [TEX37_Y28_D24N_YF] shows phosphorylation enrichment of 1 or higher.
no (0)

// inclusive: phosphorylation enrichment at least 1? input: FTNRNYDLDFD [MYC_Y12_YF]
yes (1)

Tell me whether phosphorylation enrichment is at least 1 here: APTSGYREFVH [IL4R_Y575_Q576R]
no (0)

Does the reported phosphorylation enrichment for TVVVPYEPPEV [TP53_Y220_S215T] fall at or above the 1 mark?
yes (1)

Confirm if phosphorylation enrichment reported for the sequence KVNKIYHPDFI [LIG3_Y767_Y768H] is 1 or above.
no (0)

phosphorylation enrichment >= 1 for EEGESDVCSSD [DCX_Y125_Y125D] ?
no (0)

Confirm if phosphorylation enrichment reported for the sequence HKANEYYPVVL [ADAMTS18_Y764] is 1 or above.
yes (1)

Reported phosphorylation enrichment at or above 1? IALNSYHSRNC [IFNGR1_Y397]
no (0)
